Target: UniProt:P28704
Assay: holoreceptor transactivation assay, RXRβ
Conditions: holoreceptor transactivation; read-out: RXR Trans. EC50 β
valueType: pEC50
pEC50 is a log-scale quantity: -log10 of the concentration expressed in molar.

QUERY: State its pEC50 on UniProt:P28704: CCOc1c(\C(C)=C/C=C/C(C)=C/C(=O)O)cc2c(c1Cl)OC(C)(C)C=C2C(C)C [Compound 50]
RESULT: 7.72

QUERY: Entry to check: COc1c(\C(C)=C(F)/C=C/C(C)=C/C(=O)O)cc2c(c1Cl)OC(C)(C)C=C2C(C)C [Compound 170]
RESULT: 9.10

QUERY: Entry to check: CC/C(=C(F)/C=C/C(C)=C/C(=O)O)c1cc2c(cc1OC)OC(C)(C)C=C2C [Compound 129]
RESULT: 6.07

QUERY: Entry to check: CC/C(=C(F)/C=C/C(C)=C/C(=O)O)c1cc2c(cc1OC)OC(C)(C)C=C2C(C)C [Compound 130]
RESULT: 8.51

QUERY: Entry to check: CCOc1cc2c(cc1\C(C)=C/C=C/C(C)=C/C(=O)O)C(C(C)C)=CC(C)(C)O2 [Compound 47]
RESULT: 6.54

QUERY: Entry to check: CC(/C=C/C(F)=C(/C)c1cc2c(c(Br)c1OC(C)C)C(C)(C)CC=C2C(C)C)=C\C(=O)O [Compound A-172]
RESULT: 7.08

QUERY: Entry to check: CCOc1cc2c(cc1\C(C)=C(F)/C=C/C(C)=C/C(=O)O)C(C(C)C)=CCC2(C)C [Compound A-79]
RESULT: 8.40

QUERY: Entry to check: CCOc1cc2c(cc1\C(C)=C(F)/C=C/C(C)=C/C(=O)O)C(C(C)(C)C)=CCC2(C)C [Compound A-82]
RESULT: 8.40

QUERY: Entry to check: CCOc1c(\C(C)=C(F)/C=C/C(C)=C/C(=O)O)cc2c(c1Br)C(C)(C)CC=C2C(C)C [Compound A-169]
RESULT: 8.66

QUERY: Entry to check: CCOc1c(\C(=C(F)/C=C/C(C)=C/C(=O)O)C(C)C)cc2c(c1Br)C(C)(C)CC=C2C(C)C [Compound A-171]
RESULT: 8.52

QUERY: Entry to check: COc1cc2c(cc1\C(C)=C(F)/C=C/C(C)=C/C(=O)O)C(C(C)(C)C)=CC(C)(C)O2 [Compound 122]
RESULT: 7.46

QUERY: Entry to check: CCOc1cc2c(cc1\C(CC)=C(F)/C=C/C(C)=C/C(=O)O)C(CC)=CCC2(C)C [Compound A-78]
RESULT: 7.74

QUERY: Entry to check: CCOc1cc2c(cc1\C(=C/C=C/C(C)=C/C(=O)O)CC)C(C)=CCC2(C)C [Compound A-16]
RESULT: 6.72

QUERY: Entry to check: CCOc1c(\C(CC)=C(F)/C=C/C(C)=C/C(=O)O)cc2c(c1Cl)OC(C)(C)C=C2C(C)C [Compound 173]
RESULT: 7.74
